# credit: ChEMBL document CHEMBL1127485

experiment: Binding affinity towards convulsant site of the GABAA receptor was determined in bovine cortical P2 membranes using [3H]TBOB as radioligand; type: cell membranes
pKi: −log10 of the molar value.
Record MET whenever pKi is at 6 or higher; record NOT MET when lower.

Reference set, count: 4
| MOLECULE | CAT |
| --- | --- |
| CC(C)(C)C12COC(C3=CC(=O)C(Br)=CC3=[N+]=[N-])(OC1)OC2 | MET |
| CC(C)(C)C1CS(=O)(=O)C(c2ccccc2)S(=O)(=O)C1 (configuration not stated) | MET |
| CC(C)(C)C1CSC(c2cc(O)ccc2[N+](=O)[O-])SC1 (configuration not stated) | NOT MET |
| CC(C)(C)C1CS(=O)(=O)C(C2=CC(=[N+]=[N-])C=C(Br)C2=O)S(=O)(=O)C1 (configuration not stated) | NOT MET |

Exercise: Hi team, for `CC(C)(C)C12COC(c3ccccc3O)(OC1)OC2` , is the recorded pKi at or above 6?
Solution: MET

Exercise: Dear colleague, could you confirm whether CC(C)(C)C1CS(=O)(=O)C(c2cc(O)c(Br)cc2[N+](=O)[O-])S(=O)(=O)C1 (configuration not stated) has pKi at or above 6?
Solution: NOT MET

Exercise: Is pKi for CC(C)(C)C1CSC(C2=CC(=O)C(Br)=CC2=[N+]=[N-])SC1 (configuration not stated) at or above 6?
Solution: NOT MET

Exercise: Threshold query (pKi >= 6) on `CC(C)(C)C12COC(c3ccccc3)(OC1)OC2`
Solution: MET

====

assay: Binding affinity towards convulsant site of the GABAA receptor was determined in bovine cortical P2 membranes using [3H]TBOB as radioligand; format: cell membranes
Here the recorded Ki is given for each entry.
Record the value in nM, omitting the unit from your answer.

Solved entries (count: 2):
| COMPOUND | OBSERVED VALUE |
| --- | --- |
| CC(C)(C)C1CS(=O)(=O)C(C2=CC(=[N+]=[N-])C=CC2=O)S(=O)(=O)C1 (stereo not drawn) | 250000 |
| CC(C)(C)C1CSC(c2ccc(Br)cc2)SC1 (stereo not drawn) | 280 |

Exercise: Supply recorded Ki for CC(C)(C)C1CSC(c2cc([N+](=O)[O-])ccc2O)SC1 (stereo not drawn) here.
Solution: 560

====

assay: Binding affinity towards convulsant site of the GABAA receptor was determined in bovine cortical P2 membranes using [3H]TBOB as radioligand; type: cell membranes
ASSAY READOUT: Ki (µM)
Kindly provide the numeric value in µM only, without the unit symbol.

Guide cases for Ki, answers given:
| COMPOUND | Ki / µM |
| --- | --- |
| CC(C)(C)C1CSC(c2cc(O)c(Br)cc2[N+](=O)[O-])SC1 (centres undefined) | 4.5 |
| CC(C)(C)C1CSC(c2ccccc2)SC1 (centres undefined) | 0.25 |
| CC(C)(C)C1CS(=O)(=O)C(c2ccc(Br)cc2)S(=O)(=O)C1 (centres undefined) | 0.003 |
| CC(C)(C)C1CSC(C2=CC(=[N+]=[N-])C=C(Br)C2=O)SC1 (centres undefined) | 2.2 |
| CC(C)(C)C1CSC(C2=CC(=O)C=CC2=[N+]=[N-])SC1 (centres undefined) | 30 |
| CC(C)(C)C1CS(=O)(=O)C(c2cc(O)ccc2[N+](=O)[O-])S(=O)(=O)C1 (centres undefined) | 52 |
| CC(C)(C)C1CS(=O)(=O)C(c2cc([N+](=O)[O-])ccc2O)S(=O)(=O)C1 (centres undefined) | 18 |
| CC(C)(C)C1CSC(c2cc([N+](=O)[O-])cc(Br)c2O)SC1 (centres undefined) | 0.22 |
| CC(C)(C)C1CSC(C2=CC(=[N+]=[N-])C=CC2=O)SC1 (centres undefined) | 14 |
| CC(C)(C)C1CS(=O)(=O)C(c2c(F)c(F)c(N=[N+]=[N-])c(F)c2F)S(=O)(=O)C1 (centres undefined) | 0.18 |

Exercise: Please give measured Ki of the following entry: CC(C)(C)C1CSC(c2ccccc2O)SC1 (centres undefined)
Solution: 1.8

Exercise: Quote Ki reported for CC(C)(C)C1CS(=O)(=O)C(c2ccccc2O)S(=O)(=O)C1 (centres undefined) please.
Solution: 23.9

Exercise: Provide measured Ki value, entry: `CC(C)(C)C12COC(c3ccc(Br)cc3)(OC1)OC2`
Solution: 0.009

Exercise: Indicate the recorded Ki value for this compound: CC(C)(C)C1CS(=O)(=O)C(c2cc([N+](=O)[O-])cc(Br)c2O)S(=O)(=O)C1 (centres undefined)
Solution: 0.53
